# target or system: α1A adrenoceptor (Rattus norvegicus)
# Construct: from tissue; host or cells: rat submaxillary gland membranes
# experiment notes: Radioligand binding, [3H] prazosin displacement, rat submaxillary membranes
# setup conditions: ratio of binding affinities, rat liver vs rat submaxillary
Measured α1B/α1A of individual entries
// return a plain number; no unit text

# example entries with known answers
- compound: "CC(C)Oc1ccccc1N1CCN(CC(O)CNC(=O)C2CC=CCC2C(=O)O)CC1 (centres unmarked) [Compound No. 5]"
  value: 84
- compound: "CC(C)Oc1ccccc1N1CCN(CCCNC(=O)CCCC(=O)O)CC1"
  value: 3

Prompt line: Enter reported α1B/α1A observed with α1A adrenoceptor (Rattus norvegicus) for O=C(O)C1CC=CCC1C(=O)NCCCN1CCN(c2ccccc2O)CC1 (centres unmarked) [Compound No. 8]
Response line: 9

###

This listing pairs compounds with measured pKi.
# target or system: α1A adrenoceptor (Rattus norvegicus, UniProt P43140)
# Sequence (P43140 whole entry): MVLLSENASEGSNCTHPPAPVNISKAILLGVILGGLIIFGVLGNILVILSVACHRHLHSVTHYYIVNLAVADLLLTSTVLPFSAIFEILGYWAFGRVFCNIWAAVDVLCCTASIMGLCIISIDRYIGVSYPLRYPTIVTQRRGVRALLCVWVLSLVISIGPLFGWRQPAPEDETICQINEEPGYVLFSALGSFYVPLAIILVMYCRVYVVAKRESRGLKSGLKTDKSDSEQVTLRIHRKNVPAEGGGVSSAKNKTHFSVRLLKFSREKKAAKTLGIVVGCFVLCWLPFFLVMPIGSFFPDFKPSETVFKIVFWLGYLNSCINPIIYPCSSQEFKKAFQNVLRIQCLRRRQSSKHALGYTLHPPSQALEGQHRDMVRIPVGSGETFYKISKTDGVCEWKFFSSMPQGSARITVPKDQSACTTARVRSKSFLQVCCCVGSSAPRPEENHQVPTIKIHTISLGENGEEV
Where a name gives a salt, the structure may show the parent alone.
pKi here: minus log base 10 of the concentration, concentration in moles per litre.

- compound: "O=C(O)C1CC=CCC1C(=O)NCCCN1CCN(c2ccccc2O)CC1 (centres unmarked)"
  value: 6.23
- compound: "CC(C)Oc1ccccc1N1CCN(CCCNC(=O)CCCC(=O)O)CC1"
  value: 6.11

Kindly review the next compound as well.
Prompt line: // query pKi value for entry COC(=O)CCCC(=O)NCCCN1CCN(c2ccccc2OC)CC1 [hydrochloride]
Response line: 6.86
